The measurements presented in this section are drawn from paper PMC5540273.

Test system: PIK3C2G;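 note: kd values determined as follow-up on hits from a single-replicate KINOMEscan panel screen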
propertyName: pKd
Value format note: pKd is -log10 of concentration (mol/L); just state the number.

Query: Quick one: pKd of `COc1ccc(-c2cc3c(C)nc(N)nc3n([C@H]3CC[C@H](O)CC3)c2=O)cn1` ?
Result: 9.34

====

Tested on: NDR1
Construct: gene STK38
conditionSummary: concentration: 1 μM, replicates: in singlicate; n = 1
propertyName: %Inh (%)
The reply should contain only the number, in %.

Query: Quick one: %Inh of `COc1cccc(-n2cnc3c(N)ncnc32)c1` ?
Result: 28

Query: Quick one: %Inh of `Cc1c(Cn2c(C)nn3c(=O)cc(N4CCO[C@H](C)C4)nc23)cccc1C(F)(F)F` ?
Result: 6

Query: Quick one: %Inh of `CCC(=O)c1c(-c2ccccc2)c2cc(Cl)ccc2c(=O)n1Cc1cc(S(C)(=O)=O)n(CC(F)F)n1` ?
Result: 3

Query: Quick one: %Inh of `CCC(=O)c1c(-c2ccccc2)c2cc(Cl)ccc2c(=O)n1Cc1cc(S(C)(=O)=O)n(CC(N)=O)n1` ?
Result: 32

Query: Quick one: %Inh of `Cc1cccc(-c2nc(Nc3ccc4c(cnn4C)c3)c3ccccc3n2)n1` ?
Result: 17

Query: Quick one: %Inh of `CCn1c(-c2ccoc2)nc2cnccc21` ?
Result: 0

Query: Quick one: %Inh of `Nc1ncnc2c1ncn2-c1cccc(F)c1` ?
Result: 15

Query: Quick one: %Inh of `O=C1NC(=O)C(c2ccccc2)=C1Nc1cccc(O)c1` ?
Result: 0

Query: Quick one: %Inh of `CCc1ccc(-c2ccc3c(c2)-c2nn(C)cc2S(=O)(=O)N3C)cc1` ?
Result: 19

Query: Quick one: %Inh of `CCCNC(=O)Nc1ccc(Oc2ncnc3ccn(C)c23)cc1` ?
Result: 3

====

Assignment: determine reported %Inh for the given molecules.
Test system: FLT3
conditionSummary: concentration: 1 μM, replicates: in singlicate; n = 1
The reply should contain only the number, in %.

Query: Quick one: %Inh of Nc1n[nH]c2nnc(-c3ccccc3)c(-c3ccccc3)c12 [GW554060] ?
Result: 8

Query: Quick one: %Inh of Cc1cccc(-c2cc(-c3c[nH]nc3-c3ccccn3)ccn2)c1 [GW679395] ?
Result: 0

Query: Quick one: %Inh of `CCC(=O)c1c(-c2ccccc2)c2cc(Cl)ccc2c(=O)n1Cc1ccc(C(=O)O)cc1` ?
Result: 0

Query: Quick one: %Inh of COc1cc2ncn(-c3cc(OCc4ccc(S(C)(=O)=O)cc4)c(C(N)=O)s3)c2cc1OC [GW869979] ?
Result: 4

Query: Quick one: %Inh of C[C@@H]1CC[C@H](C(=O)NC2CCCCC2)CN1c1cc(-c2ccc3c(N)n[nH]c3c2)nc(N)n1 [GSK2291363] ?
Result: 9

Query: Quick one: %Inh of COc1ccc(CNC(=O)NC2CCN(c3ccnc(Nc4ccc(F)cc4)n3)C2)cc1 (centres unmarked) [GSK1379706] ?
Result: 16

Query: Quick one: %Inh of `COc1cc(OC)cc(-c2cc3cnc(N)nc3nc2NC(=O)NC(C)(C)C)c1` ?
Result: 0

Query: Quick one: %Inh of CCn1c(-c2nonc2N)nc2ccccc21 [SB-693162/GW549034] ?
Result: 20

Query: Quick one: %Inh of Nc1ncnc2c1ncn2-c1ccc(Cl)cc1 [AH2635] ?
Result: 46

Query: Quick one: %Inh of O=C(NCCNc1ccnc(Nc2ccc(F)cc2)n1)Nc1ccc2c(c1)OCO2 [GSK1379882] ?
Result: 0

Query: Quick one: %Inh of Nc1nc(-c2ccccc2F)c(-c2ccnc3ccccc23)s1 [GW560459] ?
Result: 25

Query: Quick one: %Inh of `CCCNC(=O)Nc1ccc(Oc2ncnc3ccn(C)c23)cc1` ?
Result: 45

Query: Quick one: %Inh of `Cc1nc(N(C)[C@H]2CN(C(=O)CC#N)CC[C@H]2C)c2cc[nH]c2n1` ?
Result: 5

Query: Quick one: %Inh of O=c1cc(N2CCOCC2)nc2n(Cc3ccc(F)c(Cl)c3)ccn12 [GSK2297099] ?
Result: 0

Query: Quick one: %Inh of CN1C(=O)C(Nc2ccccc2)=C(c2ccccc2)C1=O [SB-300079] ?
Result: 0

Query: Quick one: %Inh of `COc1ccc(-c2cc3c(C)nc(N)nc3n([C@H]3CC[C@H](OCCO)CC3)c2=O)cn1` ?
Result: 0

Query: Quick one: %Inh of CN1C(=O)C(Nc2cc(Cl)c(O)c(Cl)c2)=C(c2ccc(Cl)cc2)C1=O [SB-404321] ?
Result: 0

Query: Quick one: %Inh of COc1cc(Nc2nccc(N3CCC(NC(=O)C4COc5ccccc5O4)C3)n2)cc(OC)c1OC (centres unmarked) [GSK1379761] ?
Result: 37

Query: Quick one: %Inh of COc1cc2nccc(Nc3ccc(OCc4ccc(NC(C)=O)cc4)cc3)c2cc1OC.Cl [GW440135] ?
Result: 73

Query: Quick one: %Inh of O=C(Nc1ccc2c(c1)OCO2)NC1CCN(c2ccnc(NCc3ccc(F)cc3)n2)CC1 [GSK1379859] ?
Result: 0

Query: Quick one: %Inh of Nc1nc(N)c2nc(-c3ccccc3)[nH]c2n1 [SKF-12778] ?
Result: 8

Query: Quick one: %Inh of O=C1NC(=O)C(c2ccccc2)=C1Nc1cccc(O)c1 [SB-390534] ?
Result: 26

Query: Quick one: %Inh of `Cn1c(=O)c(F)c(Nc2ccc(I)cc2F)c2c(=O)n(OC[C@H](O)CO)cnc21` ?
Result: 0

Query: Quick one: %Inh of CCn1c(-c2ccoc2)nc2cnccc21 [SB-733887] ?
Result: 0

Query: Quick one: %Inh of `COC(=O)c1c(-c2ccccc2)c2cc(C)ccc2c(=O)n1Cc1ccccc1` ?
Result: 0

Query: Quick one: %Inh of `CCC(=O)c1c(-c2ccccc2)c2cc(Cl)ccc2c(=O)n1Cc1cc(S(C)(=O)=O)n(CC(F)F)n1` ?
Result: 0

Query: Quick one: %Inh of COc1cccc(C2=C(N(C)c3ccccc3)C(=O)NC2=O)c1 [SB-334865] ?
Result: 0

Query: Quick one: %Inh of `Cc1ccc(Oc2ccc(Nc3ncnc4cc[nH]c34)cc2C)cn1` ?
Result: 3

Query: Quick one: %Inh of Cc1nnc(-c2ccc(C)c(-c3ccc(C(=O)O)cc3)c2)o1 [GW608005] ?
Result: 0

Query: Quick one: %Inh of O=C(Nc1n[nH]c2cc(-c3ccccc3F)ccc12)C1CC1 [SB-733371] ?
Result: 38

Query: Quick one: %Inh of COc1ccc(-n2cnc3c(N)ncnc32)cc1 [SKF-97236] ?
Result: 83

Query: Quick one: %Inh of COc1ccc(Nc2nccc(N3CCC(NS(=O)(=O)c4ccc(NC(C)=O)cc4)C3)n2)cc1 (centres unmarked) [GSK1379729] ?
Result: 29

Query: Quick one: %Inh of `Fc1cccc(CSc2nnc(-c3ccc4c(c3)CCO4)o2)c1` ?
Result: 0

Query: Quick one: %Inh of COc1cc2ncn(-c3cc(OCCCc4ccccc4)c(C(N)=O)s3)c2cc1OC [GSK205189] ?
Result: 5

Query: Quick one: %Inh of O=C(NCc1cccs1)c1cc(C(=O)c2c(Cl)cccc2Cl)c[nH]1 [GW823670] ?
Result: 2

Query: Quick one: %Inh of `CC(C)(C)c1ccc(C(=O)Nc2cn3cc(-c4ccccc4)ccc3n2)cc1` ?
Result: 35

Query: Quick one: %Inh of COc1cc2ncn(-c3cc(OCc4ccncc4Br)c(C(N)=O)s3)c2cc1OC [GW854278] ?
Result: 26

Query: Quick one: %Inh of `COc1ccc(-c2coc3ccc(-c4nnc(SCc5cccc(C#N)c5)o4)cc23)cc1` ?
Result: 13

====

Tested on: p38-gamma
Construct: gene MAPK12
conditionSummary: concentration: 1 μM, replicates: in singlicate; n = 1
Assignment: determine reported %Inh for the given compounds.
The reply should contain only the number, in %.

Query: Quick one: %Inh of `CN1C(=O)C(Nc2ccccc2)=C(c2ccccc2)C1=O` ?
Result: 0

Query: Quick one: %Inh of `COc1ccc(-n2cnc3c(N)ncnc32)cc1` ?
Result: 12

Query: Quick one: %Inh of `O=C1NC(=O)C(c2ccccc2)=C1Nc1cccc(O)c1` ?
Result: 15

Query: Quick one: %Inh of `CCC(=O)c1c(-c2ccccc2)c2cc(Cl)ccc2c(=O)n1Cc1cc(C(=O)NC2CC2)n(C)n1` ?
Result: 9

Query: Quick one: %Inh of `Cl.c1ccc(Cn2cnc3cc(Nc4ncnc5ccccc45)ccc32)cc1` ?
Result: 0

Query: Quick one: %Inh of COc1cc(Nc2nccc(N3CCC(NC(=O)C4COc5ccccc5O4)C3)n2)cc(OC)c1OC (centres unmarked) ?
Result: 39

Query: Quick one: %Inh of `COc1cccc(-n2cnc3c(N)ncnc32)c1` ?
Result: 52

Query: Quick one: %Inh of `COc1cc(OC)cc(-c2cc3cnc(N)nc3nc2NC(=O)NC(C)(C)C)c1` ?
Result: 9
